// reported IC50 per item
# Tested on: MOLT-4
# test: Antiproliferative activity against HTLV1-deficient human MOLT4 cells after 4 days by MTT assay
# Assay type: functional, cell-based
# test_settings: MOLT-4, 96 h
The figure you give is taken to be in µM; do not add the unit.

CC1(C)CCC(C)(C)c2cc(C(=O)c3ccccc3)ccc21 = 11.8
CON(C)C(=O)c1ccc2c(c1)C(C)(C)CCC2(C)C = 9.9
CC(=S)c1cc2c(cc1O)C(C)(C)CCC2(C)C = 36.4

Please indicate IC50 recorded for `CC(=O)c1ccc2c(c1)C(C)(C)CCC2(C)C`
66

Please indicate IC50 recorded for `CC1(C)CCC(C)(C)c2cc(C(N)=O)ccc21`
39.4

Please indicate IC50 recorded for `COc1cc2c(cc1C(C)=O)C(C)(C)CCC2(C)C`
11.9

Please indicate IC50 recorded for `CCC(=O)c1ccc2c(c1)C(C)(C)CCC2(C)C`
21.5

Please indicate IC50 recorded for CC(O)c1ccc2c(c1)C(C)(C)CCC2(C)C (racemic)
34.4

Please indicate IC50 recorded for `CCC(=O)c1cc2c(cc1O)C(C)(C)CCC2(C)C`
32.3

Please indicate IC50 recorded for `CC1(C)CCC(C)(C)c2cc(C=O)ccc21`
24.8

Please indicate IC50 recorded for `CC(C)C(=O)c1cc2c(cc1O)C(C)(C)CCC2(C)C`
31.9

Please indicate IC50 recorded for `CC(C)C(=O)c1ccc2c(c1)C(C)(C)CCC2(C)C`
34.6

Please indicate IC50 recorded for `CC(=O)c1cc2c(cc1O)C(C)(C)CCC2(C)C`
82.9

Please indicate IC50 recorded for `CC1(C)CCC(C)(C)c2cc(C(=O)O)ccc21`
61.1
